- Test system: PCSK9 gene
- protocol_summary: PCSK9 gRNA/SpCas9 editing in primary cynomolgus hepatocytes (Tables 2, 22)
- Format: cell-based, cynomolgus monkey
- measurement_context: 2500 ng/RNA/mL; SpCas9 mRNA MS002 1:1 by weight
In the oligonucleotide strings, read from the 5' end, every base follows the letter of its sugar. An asterisk marks phosphorothioate; unmarked linkages are phosphodiester. Other units and linkages are bracketed, terminal groups are in braces. A string of capitals states the bases alone. m = 2'-O-methyl; r = 2'-OH (RNA)
property: Cyno Primary Hepatocyte Editing % 2500

What value of Cyno Primary Hepatocyte Editing % 2500 has been recorded for this entry: GA222: PCSK9 gRNA; protospacer TGGCAGGGGTGGTCAGCGGC (SEQ ID NO: 216) (nucleic acid, sugars from the 5' end m3 r94 m3, linkages s3 o93 s3 (s phosphorothioate, o phosphodiester), T or U not given here) guide: UGGCAGGGGUGGUCAGCGGCGUUUUAGAGCUAGAAAUAGCAAGUUAAAAUAAGGCUAGUCCGUUAUCAACUUGAAAAAGUGGCACCGAGUCGGUGCUUUU
16.7%

# lookup: Cyno Primary Hepatocyte Editing % 2500 of GA187: PCSK9 gRNA; protospacer CTCCTCGATGTAGTCGACAT (SEQ ID NO: 181) (nucleic acid) guide: mC*mU*mC*rCrUrCrGrArUrGrUrArGrUrCrGrArCrArUrGrUrUrUrUrArGrArGrCrUrArGrArArArUrArGrCrArArGrUrUrArArArArUrArArGrGrCrUrArGrUrCrCrGrUrUrArUrCrArArCrUrUrGrArArArArArGrUrGrGrCrArCrCrGrArGrUrCrGrGrUrGrCrU*mU*mU*mU
29.24%

Query (molecule): GA203: PCSK9 gRNA; protospacer TGACCCTGCCCTCGATTTCC (SEQ ID NO: 197) (nucleic acid, sugars from the 5' end m3 r94 m3, linkages s3 o93 s3 (s phosphorothioate, o phosphodiester), T or U not given here) guide: UGACCCUGCCCUCGAUUUCCGUUUUAGAGCUAGAAAUAGCAAGUUAAAAUAAGGCUAGUCCGUUAUCAACUUGAAAAAGUGGCACCGAGUCGGUGCUUUU ; field requested: Cyno Primary Hepatocyte Editing % 2500
32.85%

Every entry's value here was drawn from patent US20250152746A1.
